// provenance: patent US11427783B2

logP for assorted compounds
ASSAY NAME: physchem

{"columns": ["COMPOUND", "logP"],
 "data": [
  ["CC1=CCC(C(C)C)=CC1", 5.87],
  ["CC1CCC2C(C)(C)C3CC12CCC3(C)O (racemic)", 5.39],
  ["O=C(Cc1ccccc1)OCCc1ccccc1 [2-PHENYLETHYL PHENYLACETATE]", 3.59],
  ["CC1CCC(=O)O1 (racemic) [(+−)-4-PENTANOLIDE]", -0.12],
  ["C=CCSSCC=C [DIALLYL DISULFIDE]", 3.3],
  ["CCOC(C)=O [ETHYL ACETATE]", 0.8],
  ["CC(C=O)Cc1ccc2c(c1)OCO2 (racemic)", 1.28],
  ["CC/C=C\\CCCCCO [(Z)-6-NONEN-1-OL]", 3.44],
  ["CC1COCc2cc3c(cc21)C(C)(C)C(C)C3(C)C (racemic)", 6.57],
  ["CCOC(=O)c1ccccc1 [ETHYL BENZOATE]", 2.51],
  ["CC(=O)/C=C/C1C(C)=CCCC1(C)C (racemic)", 4.06],
  ["O=Cc1ccc2c(c1)OCO2 [benzo[d][1,3]dioxole-5-carbaldehyde]", 1.52],
  ["C=CC(C)(CCC=C(C)C)OC(C)=O (racemic)", 4.04],
  ["CCOc1cc(C=O)ccc1O [3-ethoxy-4-hydroxybenzaldehyde]", 1.27],
  ["O=Cc1ccccc1 [BENZALDEHYDE]", 1.33],
  ["C/C=C/c1ccc(OC)cc1 [1-methoxy-4-[(1E)-1-propen-1-yl]benzene]", 3.58],
  ["CCOC(=O)Cc1ccccc1 [ETHYL PHENYLACETATE]", 2.1]
]}

###

Log P (n-octanol/water) for assorted compounds
ASSAY NAME: Log P (n-octanol/water) of perfuming compounds
ASSAY CONTEXT: Table 9, perfuming compounds having a gourmand note
TEST READOUT: Log P (n-octanol/water)

{"columns": ["COMPOUND", "RESULT VALUE"],
 "data": [
  ["COc1cc(C=O)ccc1OC(=O)C(C)C", 1.90],
  ["CC/C=C\\CCOC(=O)C/C=C\\CC [(3Z)-3-hexen-1-yl (3Z)-3-hexenoate]", 4.22],
  ["C/C=C/c1ccc(O)c(OC)c1 [2-methoxy-4-[(1E)-1-propen-1-yl]phenol]", 2.15],
  ["CC/C=C\\CC1=C(C)CCC1=O", 2.61],
  ["CCCCCC1CCCC1=O (racemic) [(+−)-2-pentylcyclopentanone]", 3.62],
  ["CCCCCC1CCCC(=O)O1 (racemic) [(+−)-6-pentyltetrahydro-2H-pyran-2-one]", 2.22],
  ["CCC(=O)/C=C/C1=C(C)CCCC1(C)C", 4.47],
  ["CCCCCCC1CCCC(=O)O1 (stereo not shown) [6-hexyltetrahydro-2H-pyran-2-one]", 3.00],
  ["CCCCOC(C)=O [BUTYL ACETATE]", 2.11],
  ["C=CCSSCC=C [DIALLYL DISULFIDE]", 3.30],
  ["CCCCCCCC1CCCC(=O)O1 (racemic) [(+−)-6-heptyltetrahydro-2H-pyran-2-one]", 3.42],
  ["C/C=C/C(=O)[C@@H]1[C@@H](C)C=CCC1(C)C (racemic)", 4.13],
  ["CCCCCC(=O)OCC [ETHYL HEXANOATE]", 3.12],
  ["O=C(Cc1ccccc1)OCCc1ccccc1 [2-PHENYLETHYL PHENYLACETATE]", 3.59],
  ["C=C(C)CC(C)OC(=O)C(C)C (racemic)", 3.57],
  ["COc1cc(C=O)ccc1O [4-hydroxy-3-methoxybenzaldehyde]", 0.72]
]}

###

ASSAY NAME: Volatility of perfuming compounds in air
Assay type: physicochemical
ASSAY CONTEXT: Table 7, citrus note
Each record is given met if its reported Volatility is strictly below 700 μg/l air. Records at or above 700 μg/l air are given not met.

{"columns": ["COMPOUND", "ASSIGNED LABEL"],
 "data": [
  ["CCCCCCCCC=O [nonanal]", "not met"],
  ["CC(C)=CCC/C(C)=C\\CO", "met"],
  ["CC(C)=CCCC(C)CCOCC=O (racemic)", "met"],
  ["CC(C)=CCC/C(C)=C/CO", "met"],
  ["CCOc1ccc2ccccc2c1 [2-ETHOXYNAPHTHALENE]", "met"],
  ["CC(C)CCCC(C)CCO (racemic)", "met"],
  ["CCCCC[C@H]1C(=O)CC[C@@H]1CC(=O)OC (racemic)", "met"],
  ["CC1=CCC(C(C)C)=CC1", "not met"],
  ["CCCCCC=O [hexanal]", "not met"]
]}

###

ASSAY NAME: Volatility of perfuming compounds in air
Assay type: physicochemical
ASSAY CONTEXT: Table 5, perfuming compounds having a green note
Volatility for assorted compounds

{"columns": ["COMPOUND", "Volatility [μg/l air]"],
 "data": [
  ["C=CC(O)CCCCC (racemic) [(+−)-1-octen-3-ol]", 3030.11],
  ["CC1(C)CC=C(CCC=O)CC1", 417.92],
  ["CCCCCCCC(=O)OCC [ethyl octanoate]", 800.05],
  ["CC/C=C\\CC/C=C/CO", 98.76],
  ["CCC/C=C/CO [(E)-2-HEXEN-1-OL]", 3752.17],
  ["CCCCCCCCCCO", 31.90],
  ["CC(CC=O)CC(C)(C)C (racemic) [(+−)-3,5,5-TRIMETHYLHEXANAL]", 12045.92],
  ["COc1ccc(C=O)cc1", 98.47],
  ["CC/C=C\\CCCCCO [(Z)-6-NONEN-1-OL]", 6.91],
  ["CC(=O)OCC=C(C)CCC=C(C)C (mixture of isomers) [GERANYL ACETATE (A) + NERYL ACETATE (B)]", 85.23],
  ["CCCC(C)=CCOC(C)=O (mixture of isomers)", 4131.05]
]}

###

ASSAY NAME: physchem
ASSAY CONTEXT: n-octanol/water
TEST READOUT: logP

{"columns": ["COMPOUND", "RESULT VALUE"],
 "data": [
  ["C=C(C)CC(C(C)=O)C(=O)OCC (racemic)", 2.15],
  ["CCC(=O)OCc1ccccc1 [BENZYL PROPANOATE]", 2.35],
  ["CCC/C=C/C=O [(2E)-2-HEXENAL]", 1.62],
  ["CCCCCC(=O)OC [METHYL HEXANOATE]", 2.65],
  ["C=CC(C)CC(=O)CC(C)C (racemic)", 3.12],
  ["CC(C)(C)c1ccc2c(c1)OCC(=O)CO2", 2.97],
  ["CCCCCCCC=O [OCTANAL]", 2.94]
]}

###

ASSAY NAME: Log P (n-octanol/water) of perfuming compounds
ASSAY CONTEXT: Table 5, perfuming compounds having a green note
// label = yes if Log P (n-octanol/water) is not less than 3, otherwise no

{"columns": ["MOLECULE", "ASSIGNED LABEL"],
 "data": [
  ["COc1ccc(CC(C)C=O)cc1 (racemic)", "no"],
  ["CCCCCCC#CC(=O)OC [METHYL 2-NONYNOATE]", "yes"],
  ["CCC(C)c1nccnc1OC (stereo not drawn)", "no"],
  ["CC/C=C\\CC/C=C/CO", "no"],
  ["CCCC(C)=CCOC(C)=O (mixture of isomers)", "yes"],
  ["CC1=CC2CC(C=O)C1CC2C(C)C (stereo not drawn)", "yes"],
  ["CC(=O)OCC=C(C)CCC=C(C)C (mixture of isomers) [GERANYL ACETATE (A) + NERYL ACETATE (B)]", "yes"],
  ["CCCc1ccc2c(c1)OCC(=O)CO2 [7-PROPYL-2H,4H-1,5-BENZODIOXEPIN-3-ONE]", "no"]
]}

###

ASSAY NAME: Volatility of perfuming compounds in air
Type: physicochemical
ASSAY CONTEXT: Table 5, perfuming compounds having a green note
Counter-ions that a name gives are not always drawn.
Each record is given 1.0 if its reported Volatility is strictly below 700 μg/l air. Records at or above 700 μg/l air are given 0.0.

{"columns": ["COMPOUND", "ASSIGNED LABEL"],
 "data": [
  ["COc1ccc(CC(C)C=O)cc1 (racemic)", 1.0],
  ["CC/C=C\\CCOC(=O)c1ccccc1O [(3Z)-3-hexen-1-yl salicylate]", 1.0],
  ["COC(=O)OC1CC/C=C\\CCC1 (racemic)", 1.0],
  ["CC/C=C\\CC/C=C/C=O", 1.0],
  ["COc1nccnc1CCCC(C)C", 1.0],
  ["CCCCCC=O", 0.0],
  ["O=COCc1ccccc1 [BENZYL FORMATE]", 0.0],
  ["COC(=O)C1C(C)=CCCC1(C)C (racemic)", 0.0],
  ["N#CC(=C1CCCCC1)c1ccccc1", 1.0],
  ["COCCc1ccccc1", 0.0],
  ["CCCCCCC#CC(=O)OC [METHYL 2-NONYNOATE]", 1.0],
  ["CC(C)(C)c1ccc2c(c1)OCC(=O)CO2", 1.0],
  ["CCCCC/C=C\\CCC=O [(Z)-4-DECENAL]", 1.0],
  ["COc1ccc(C(C)=O)cc1", 1.0],
  ["C/C=C(\\C)C(=O)OCC/C=C\\CC", 1.0],
  ["CCCCCCCC=O", 0.0],
  ["COC(C)(C)[C@H]1CC=C(C)CC1", 0.0],
  ["CC/C=C\\CCCCC=O [(Z)-6-NONENAL]", 0.0],
  ["CCC(C)c1nccnc1OC (centres unmarked)", 0.0],
  ["CCCCCC#CC(=O)OC [METHYL 2-OCTYNOATE″, METHYL 2-OCTYNOATE]", 1.0],
  ["C=C/C=C/C=C\\CCCCC", 0.0],
  ["CCCCCCO", 0.0],
  ["CC/C=C\\CCO [(Z)-3-HEXEN-1-OL]", 0.0],
  ["CC(=O)/C=C/C1C(C)=CCCC1(C)C (racemic)", 1.0],
  ["CC1CCCC2(C)CCCCC12O (racemic)", 1.0]
]}
